- System: RAW-Dual (murine macrophage reporter line)
- Procedure text: NF-kB reporter (SEAP) activity fold change vs agonist alone; higher = enhanced NF-kB activity
- Conditions: modulator concentration 10 µM; agonist: CpG ODN 1826 0.5 ug/mL
Quantity name: NF-kB reporter

Recorded NF-kB reporter for Cc1cccc(C(=O)NC(Nc2ccccc2C(F)(F)F)C(Cl)(Cl)Cl)c1 (configuration not stated) , please?
0.896

Which NF-kB reporter value is on record for CC(C)(C)c1ccc(-c2nc(-c3cccc([N+](=O)[O-])c3)no2)cc1 ?
1.06

What does the record list as NF-kB reporter for COC(=O)c1cc(Br)ccc1NC(=O)c1ccccc1 ?
1.07

Record request: NF-kB reporter value, item CCN(CC)CCOC(=O)c1ccc(N)cc1Cl.Cl
1.06

Query: NF-kB reporter; subject: CCN(CC)c1ccc(C=Nn2nnnc2N)c(O)c1
1.01

Need NF-kB reporter of Cc1c(N=Cc2cc([N+](=O)[O-])ccc2O)c(=O)n(-c2ccccc2)n1C , thanks.
0.911

What does the data say about its NF-kB reporter? Entry: O=S(=O)(c1ccccc1)N1CCOCC1
0.956

// NF-kB reporter lookup, key: COc1ccc(C)c2sc(NC(=O)c3ccco3)nc12
1.18

So what's the measured NF-kB reporter for this one? CC(C)NCC(O)COc1cccc2[nH]ccc12 (configuration not stated) [Prestw-90]
1.59

Please give the measured NF-kB reporter for this molecule: COC(=O)C1=C(C)NC(C)=C(C(=O)OC)C1c1ccccc1[N+](=O)[O-]
1.27

Give its NF-kB reporter value. Item: OCc1ccccc1OC1OC(CO)C(O)C(O)C1O (configuration not stated)
1.13

// returns reported NF-kB reporter for input Cn1c(=O)c2c(ncn2CC2OCCO2)n(C)c1=O
0.89

###

- Test system: RAW-Dual (murine macrophage reporter line)
- Procedure text: IRF reporter (Lucia luciferase) activity fold change vs agonist alone; higher = enhanced IRF activity
- Conditions: modulator concentration 10 µM; agonist: MPLA […]
Please provide measured IRF reporter for the entries that follow.

# IRF reporter lookup, item COc1cc2ccc(=O)oc2cc1O
0.946

Query: IRF reporter; subject: CCS(=O)(=O)O.COC(=O)c1ccc2c(c1)NC(=O)/C2=C(\Nc1ccc(N(C)C(=O)CN2CCN(C)CC2)cc1)c1ccccc1
0.241

Form field: reported IRF reporter of O=C(O)c1cc(O)c(O)c(O)c1
0.97

So what's the measured IRF reporter for this one? Nc1nc(Cl)nc2c1ncn2[C@H]1C[C@H](O)[C@@H](CO)O1
1.08

Which IRF reporter reading was recorded for the compound Br.Cc1ccc(-c2csc(N3N=C(c4ccc(F)cc4)CC3c3ccc(C(C)C)cc3)n2)cc1C (configuration not stated) ?
1.13

Consider the compound shown here: O=S(=O)(NN=Cc1c[nH]c2ccccc12)c1ccc(Cl)cc1 What is its recorded IRF reporter?
1.31

Consider the compound CCC(=O)N1c2ccccc2NC2=C(C(=O)CC(c3ccccc3F)C2)C1c1ccc(C)cc1 (configuration not stated) and give its measured IRF reporter.
1.07

Which measured IRF reporter value corresponds to CC12CCC(CC1)C(C)(C)O2 ?
1.15

# get_value(readout='IRF reporter', item= CC1CC(OC(=O)C(O)c2ccccc2)CC(C)(C)C1 (configuration not stated) )
1.48

Query: IRF reporter; subject: COc1ccccc1Cn1c(SC)nc2c(-c3ccccc3)c[nH]c2c1=O
1.41

What value of IRF reporter has been recorded for this entry: Br.COc1ccc2c3c1OC1CC(O)C=CC31CCN(C)C2 (configuration not stated)
1.43

// IRF reporter lookup, key: O=C(O)c1ccc(NCn2nnc3ccccc32)cc1
1.51

Which IRF reporter reading was recorded for the compound COc1cc2c(Oc3ccc(NC(=O)C4(C(=O)Nc5ccc(F)cc5)CC4)cc3F)ccnc2cc1OCCCN1CCOCC1 ?
0.138

Given the compound CSc1ccc(C2Nc3ccccc3-c3nnc(SCc4ccc(C)cc4)nc3O2)cc1 (configuration not stated) , what is its reported IRF reporter?
1.18

// returns reported IRF reporter for input CS(=O)(=O)N(CC(=O)Nc1ccccc1Br)c1ccc(Cl)c(C(F)(F)F)c1
1.2

For C=CCNc1oc(Cc2cccc3ccccc23)nc1C#N , what is its reported IRF reporter?
1.28

Field request: IRF reporter | item: CC(C)(C)SCC(O)Cn1c2ccc(Br)cc2c2cc(Br)ccc21 (configuration not stated)
1.4

Reported IRF reporter for CCOC(=O)Nc1nc(C)c(C(C)=O)s1 : what is it?
1.44

For O=S1(=O)N=C(NN=Cc2ccccc2O)c2ccccc21 , what is its reported IRF reporter?
1.46

Which measured IRF reporter value corresponds to CC(C)(C)c1ccc(-c2nc(-c3cccc([N+](=O)[O-])c3)no2)cc1 ?
1.05

Entry under review: CSc1nnc(CSc2nc(C)cc(C)n2)n1-c1cccc(C(F)(F)F)c1 . Reported IRF reporter?
1.37

Recorded IRF reporter of CCCC1=NN2C(=N)C(=Cc3cccc(OCc4ccccc4F)c3)C(=O)N=C2S1 , please.
1.17

Cited source: the supplement of paper PMC10646978
